- System: SR leukemia
- EXPERIMENTAL DETAILS: NCI tumour cell line growth inhibition, 48 h
Measured TGI accompanies every entry in the list below.

For orientation, consider the following solved cases.
[[record]]
compound = "O=c1[nH]c(=O)n(C2OC(CO)C(O)C2O)c2c1CCCC2 (stereo not drawn)"
measured_parameter = "TGI"
result = "> 100 µM"

[[record]]
compound = "COc1cc2noc(-c3ccccc3)c2cc1OC"
measured_parameter = "TGI"
result = "> 100 µM"

[[record]]
compound = "C1CCN(c2nsc(N3CCCCC3)n2)CC1"
measured_parameter = "TGI"
result = "> 100 µM"


# TGI (compound: N=C(N=C(N)N)N1CCN(c2ccncc2)CC1 ) is > 1000 µM

# TGI (compound: COC1OC(CO)C(O)C(O)C1Br (stereo not drawn) ) is > 100 µM

# TGI (compound: C=CCOCn1cnc2c(N)ncnc21 ) is > 100 µM

# TGI (compound: COc1cc(C2SCC(=O)N2c2ccc(-n3c(-c4ccccc4)nc4ccccc4c3=O)cc2)ccc1O (stereo not drawn) ) is > 100 µM

# TGI (compound: Cc1nc2sc(C(=O)Nc3cccc4ccccc34)c(N)c2cc1C(=O)c1ccccc1 ) is > 50 µM

# TGI (compound: COc1c(C(=O)O)oc2c(OC)cccc12 ) is > 100 µM

# TGI (compound: COc1cc2cc(C(=O)N3C[C@@H](CCl)c4c3cc(N)c3ccccc43)[nH]c2c(OC)c1OC ) is > 100 µM

###

- Test system: A549 NSCLC
- EXPERIMENTAL DETAILS: NCI tumour cell line growth inhibition, 48 h
MEASURED PARAMETER: TGI

[[record]]
molecular_string = "CC1(C)N=C(C(N)=O)c2ncn(CCO)c2N1"
result = "> 100 µM"

[[record]]
molecular_string = "CN1NC2(CCCCC2)ON=C1c1ccccc1"
result = "> 100 µM"

[[record]]
molecular_string = "COc1cc2c3c(c1)c1cc(OC)c(OC)cc1c[n+]3CC2"
result = "> 100 µM"

[[record]]
molecular_string = "O=C(Nc1nc2ccccc2n1Cc1ccccc1)NC12CC3CC(CC(C3)C1)C2"
result = "> 100 µM"

[[record]]
molecular_string = "OCCSCc1ccccc1"
result = "> 100 µM"


Now consider the entry below.
# TGI (compound: COc1cc(OC)c2c(O)c3c(cc2c1)CC(C)(C)CC3=O ) is > 100 µM

###

- System: DU-145 prostate
- EXPERIMENTAL DETAILS: NCI tumour cell line growth inhibition, 48 h
Measured TGI accompanies every entry in the list below.

For orientation, consider the following solved cases.
[[record]]
compound = "COC(=O)/C=C(\\C)C(=O)N(C)c1ccccc1I"
study_system = "DU-145 prostate"
measured_parameter = "TGI"
result = "> 100 µM"

[[record]]
compound = "O=C1CC(=O)c2c(O)cc(O)c(c2O)-c2c(ccc(O)c2O)C2=CC(=O)c3c(O)cc(O)c(c3O2)-c2c1ccc(O)c2O (tested in a mixture with another compound)"
study_system = "DU-145 prostate"
measured_parameter = "TGI"
result = "> 50 µM"

[[record]]
compound = "C/C(=N/NC(=S)Nc1ccccc1Cl)c1cccc(/C(C)=N\\NC(=S)Nc2ccccc2Cl)n1"
study_system = "DU-145 prostate"
measured_parameter = "TGI"
result = "> 100 µM"

[[record]]
compound = "O=S(=O)(NCC1CCC(CNc2ccc(Cl)cc2)CC1)c1ccc(-c2ccccc2)cc1 (stereo not given)"
study_system = "DU-145 prostate"
measured_parameter = "TGI"
result = "> 50 µM"


Now consider the entry below.
# TGI (compound: O=C1C(F)=CC(COC(c2ccccc2)(c2ccccc2)c2ccccc2)OC1n1cc(F)c(=O)[nH]c1=O (stereo not given) ) is > 34.2 µM
